measurement.target: CDK2/Cyclin E (Homo sapiens, UniProt P24941)
Construct: The open reading frames of CDK2 and Cyclin E were isolated; the GST-Rb substrate was made in E. coli BL21 (DE3) pLysS
assay.protocol: in vitro kinase assay (Scintillation Proximity Assay), CDK2/Cyclin E, GST-Rb substrate
study.conditions: in-vitro SPA kinase assay, read-out: CDK2 inhibitory activity IC50
value.type: pIC50
pIC50 is a log-scale quantity: -log10 of the concentration expressed in molar.

## Input Write down the reported pIC50 (system: CDK2/Cyclin E (Homo sapiens, UniProt P24941)) of Cc1ncc(-c2ccnc(Nc3ccc(N4CCOCC4)nc3)n2)n1C(C)C
## Output 7.31
